# Test system: SK-MEL-28 melanoma
# protocol_details: NCI tumour cell line growth inhibition, 48 h
endpoint_label: TGI

compound	endpoint_label	assay_result
COc1cccc2c1C(=O)c1c(O)c3c(c(O)c1C2=O)C[C@@](O)(/C(C)=N/NC(=O)c1cccc([N+](=O)[O-])c1)C[C@@H]3OC1CC(N)C(O)C(C)O1 (some centres not stated)	TGI	2.45 µM

Continue with the compound presented below.
Here CCOC(=O)CCCN was tested on SK-MEL-28 melanoma, and its TGI came to > 100 µM

###

# System: HCC-2998 colon
# protocol_details: NCI tumour cell line growth inhibition, 48 h
Classify as follows. Reported TGI greater than or equal to 5 µM: y. Reported TGI below: n.

> print(dat)
                                   compound  label
1  O=S1(=O)[C@H](c2ccccc2)c2c(-c3ccccc3)sc(-c3ccccc3)c2[C@@H]1c1ccccc1      y
2  Cc1ccccc1NC(=O)C(=O)C(C1OC(=O)c2ccccc21)[N+](=O)[O-] (stereo not given)      y
3  OC1CCN2Cc3ccccc3N=C12 (stereo not given)      y
4  O=C(O)CN(CCN(CC(=O)O)CC(=O)O)CCN(CC(=O)O)CC(=O)O      y
5  COC(=O)[C@H](Cc1ccccc1)NC(=O)N(CCN(CCC#N)C(=O)N[C@H](C(=O)OC)C(C)C)c1ccccc1      y

Kindly determine if TGI recorded for COc1ccc2c(c1)c(-c1ccc(-c3cn(C)c4ccc(OC)cc34)s1)cn2C is above or exactly 5 µM.
y

Does the compound CN1CCN(c2ccc3nc(-c4[nH]ncc4Nc4ncnc5[nH]ccc45)[nH]c3c2)CC1 have recorded TGI that is 5 µM or more?
n
